System: HPPD polypeptides (wild-type SEQ ID NO:1 and mutants)
Details: in the presence of Cmpd. 2, 15 μM inhibitor, high substrate concentration; total change in signal normalized to no inhibitor
Readout kind: Residual turnover (%)
One number for each entry, in %.

input: Would you mind telling me what Residual turnover value was observed for 19 (protein, mutant HPPD polypeptide) MADLYENPMGLMGFEFIEFASPTPGTLEPIFEIMGFTKVATHRSKNVHLYRQGEINLILNNEPNSIASYFAAEHGPSVCGMAFRVKDSQKAYNRALELGAQPIHIDTGPMELNLPAIKGIGGAPLYLIDRFGEGSSIYDIDFVYLEGVERNPVGAGLKVIDHLTHNVYRGRMVYWANFYEKLFNFREARYFDIKGEYTGLTSKAMSAPDGMIRIPLNEESSKGAGQIEEFLMQFNGEGIQHVAFLTDDLVKTWDALKKIGMRFRTAPGDEYYEMLEGRLPDHGEPVDQLQARGILLDGSSVEGDKRLLLQIFSETLMGPVFFEFIQRKGHDGFGPDSFKVLFESVERDQVRRGVLTAD ?
output: 93
